Give measured cell viability for each item. Keep answers brief.
# System: SEM cells
# Measurement protocol: cell viability relative to DMSO control; higher = less cytotoxic
# Condition context: RPMI 5 mM glucose + 10% dialyzed FBS; 48 h; 15.4 µM
Answers are plain numbers, in %.

Cpd smiles: O=C(O)c1ccc(O)c2ncc(N3CCOCC3)cc12
Assay system: SEM cells
Unit abbreviation: %
Measured value: 68.9
//
Cpd smiles: C=C(c1ccc(C(=O)O)cc1)c1cc2c(cc1C)C(C)(C)CCC2(C)C
Assay system: SEM cells
Unit abbreviation: %
Measured value: 99.3
//
Cpd smiles: C/C1=C2/[N]3[Co+]456([OH])<-[N]7=C1[C@@H](CCC(N)=O)C(C)(C)/C7=C/C1=[N]->4C(=C(/C)C4=[N]->5[C@@](C)([C@H]3[C@H](CC(N)=O)[C@@]2(C)CCC(=O)NC[C@@H](C)OP(=O)([O-])O[C@H]2[C@@H](O)[C@@H](n3c[n]->6c5cc(C)c(C)cc53)O[C@@H]2CO)[C@@](C)(CC(N)=O)[C@@H]4CCC(N)=O)/[C@@](C)(CC(N)=O)[C@@H]1CCC(N)=O
Assay system: SEM cells
Unit abbreviation: %
Measured value: 80.4
//
Cpd smiles: O=C(c1cncc(Br)c1)N1CCC(N2CCCC2)CC1
Assay system: SEM cells
Unit abbreviation: %
Measured value: 91.2
//
Cpd smiles: Nc1ccc(C(=O)Nc2cccc(-c3nc(N4CCOCC4)c4oc5ncccc5c4n3)c2)cn1
Assay system: SEM cells
Unit abbreviation: %
Measured value: 64
//
Cpd smiles: C=CC(=O)Nc1cccc(Sc2nc(Nc3ccc(N4CCN(C)CC4)cc3)ncc2Cl)c1
Assay system: SEM cells
Unit abbreviation: %
Measured value: 58.5

Consider the following items and state reported cell viability for each.
1. COc1c(Cl)cc2c([nH]c3cnccc32)c1NC(=O)c1cccnc1C
2. CC1(COc2ccc3c(c2)ncn3-c2ccc3cccc(N4CCC(N)CC4)c3n2)COC1
3. CC1(C)SCCN([S+](=O)([O-])c2ccc(OCC#CCO)cc2)[C@H]1C(=O)NO

## Result
1: 105; 2: 20.2; 3: 74.1

Fill in cell viability for each of the 3 compounds listed.
1. CCCN[C@H]1CCc2nc(N)sc2C1
2. COc1ccccc1[C@H](c1cccc2ccccc12)[C@@](C)(C#N)C(=O)N1CCC(c2cccc(C(F)(F)F)c2)CC1
3. Cc1cc(Nc2cc(N3CCN(C)CC3)nc(/C=C/c3ccccc3)n2)n[nH]1

## Result
1: 111; 2: 76.6; 3: 3.5

Report cell viability for every entry below.
1. CC(C)(N)c1ccc(-c2nc3ccccc3nc2-c2ccccc2)cc1
2. Nc1ccc(C(=O)c2cc3c(ccc4ccccc43)[nH]2)cc1
3. NC(=O)c1cccc(-c2cc(Nc3ccc(OC(F)(F)F)cc3)ncn2)c1

## Result
1. 2.44
2. 12.1
3. 68.9
